Source of measurements: patent US20130251703A1

biological target: human HER3 endogenously expressed on human cancer cells (SK-Br-3, BT-474, MCF7) (human, UniProt P21860 20-1342); assay: cell-based or functional assay
measurement_kind: BT474 pHER3 % inhibition (%)
Field format: number, assumed %, no unit text.

Solved cases (2 shown):
- binder: "MOR12605 (antibody, human IgG1, kappa, V domains shown, Tested as IgG) VH: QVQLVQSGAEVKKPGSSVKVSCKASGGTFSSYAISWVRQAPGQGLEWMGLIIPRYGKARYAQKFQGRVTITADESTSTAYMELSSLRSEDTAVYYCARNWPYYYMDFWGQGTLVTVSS VL: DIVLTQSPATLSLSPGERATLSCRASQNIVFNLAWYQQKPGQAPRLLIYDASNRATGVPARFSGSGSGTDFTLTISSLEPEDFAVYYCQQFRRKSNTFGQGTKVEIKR"
  BT474 pHER3 % inhibition [%]: 64
- binder: "MOR13657 (antibody, human IgG1, lambda, V domains shown, Tested as IgG) VH: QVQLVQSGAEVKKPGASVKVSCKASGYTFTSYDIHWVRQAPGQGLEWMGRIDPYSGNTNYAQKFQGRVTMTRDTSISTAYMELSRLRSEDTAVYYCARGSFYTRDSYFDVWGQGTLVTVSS VL: DIALTQPASVSGSPGQSITISCTGTSSDVGTYNQVSWYQQHPGKAPKLMIYGVSKRPSGVSNRFSGSKSGNTASLTISGLQAEDEADYYCSARDGWSEYVFGGGTKLTVLG"
  BT474 pHER3 % inhibition [%]: 63

Now consider the entry below.
query: Value lookup for BT474 pHER3 % inhibition; key = MOR12920 (antibody, human IgG1, lambda, V domains shown) VH: QVQLVQSGAEVKKPGASVKVSCKASGYTFTGYYMHWVRQAPGQGLEWMGDIEPYHGKPLYAQKFQGRVTMTRDTSISTAYMELSRLRSEDTAVYYCARGSFYTRDSYFDVWGQGTLVTVSS VL: DIALTQPASVSGSPGQSITISCTGTSSDVGTYNQVSWYQQHPGNAPKLMIYGVSKRPSGVSNRFSGSKSGNTASLTISGLQAEDEADYYCSSRDLIGHYVFGGGTKLTVLG
result: 57
